# target-system: Na^+,K^+ -ATPase (Homo sapiens)
# Construct: receptor purified according to Jorgensen (Jorgensen P., BBA, 1974,356, 36); from tissue
# test-method-notes: inhibition of the activity of the purified Na+,K+-ATPase, measured as % of hydrolysis of 32P-ATP
# Type: biochemical
# stated-conditions: read-out: Inhibitory Activity log IC50 (converted)
measurement-label: IC50 (µM)

molecule="C1CCN(CCOC2CCC3(CCC(CCC4CCOC4)CC3)CC2)C1 (racemic)" target_system="Na^+,K^+ -ATPase (Homo sapiens)" value=100
molecule="C(=CC1CCC2(CC1)CCC(OCCN1CCCC1)CC2)c1ccoc1 (mixture of isomers)" target_system="Na^+,K^+ -ATPase (Homo sapiens)" value=25.1
molecule="O=C1OCC=C1CCC1CCC2(CC1)CCC(OCCN1CCCC1)CC2 (stereo not drawn)" target_system="Na^+,K^+ -ATPase (Homo sapiens)" value=100
molecule="O=C1C=C(CCC2CCC3(CC2)CCC(OCCN2CCCC2)CC3)CO1 (stereo not drawn)" target_system="Na^+,K^+ -ATPase (Homo sapiens)" value=100
molecule="N=C(N)NN=CC1CCC2(CCC(O)CC2)CC1 (stereo not drawn)" target_system="Na^+,K^+ -ATPase (Homo sapiens)" value=63.1
molecule="NC(CO)COC1CCC2(CCC(CCc3ccoc3)CC2)CC1 (stereo not drawn)" target_system="Na^+,K^+ -ATPase (Homo sapiens)" value=50.1
molecule="OC(COC1CCC2(CCC(CCc3ccoc3)CC2)CC1)CN1CCCC1 (stereo not drawn)" target_system="Na^+,K^+ -ATPase (Homo sapiens)" value=50.1
molecule="c1cc(CC2CCC3(CCC(COCCN4CCCC4)CC3)CC2)co1 (stereo not drawn)" target_system="Na^+,K^+ -ATPase (Homo sapiens)" value=50.1
molecule="c1cc(CC2CCC3(CCC(COCCCN4CCCC4)CC3)CC2)co1 (stereo not drawn)" target_system="Na^+,K^+ -ATPase (Homo sapiens)" value=12.6

* * *

# target-system: Na^+,K^+ -ATPase (Homo sapiens)
# Construct: receptor purified according to Jorgensen (Jorgensen P., BBA, 1974,356, 36); from tissue
# test-method-notes: displacement of the specific 3H-ouabain binding from the purified Na+,K+-ATPase receptor
# stated-conditions: read-out: Binding ^3 H-Ouab. Displacement log. IC50 (converted)
Ranges used to classify IC50: lower segment (below 30 µM), middle segment (30 µM to below 60 µM), upper segment (60 µM or more)

molecule="N=C(N)NN=C1CCC2(CC1)CCC(CO)CC2 (centres unmarked)" assigned_class="lower segment"
molecule="C(=CC1CCC2(CC1)CCC(OCCN1CCCC1)CC2)c1ccoc1 (mixture of isomers)" assigned_class="upper segment"
molecule="O=C1C=C(CCC2CCC3(CC2)CCC(OCCN2CCCC2)CC3)CO1 (centres unmarked)" assigned_class="upper segment"
molecule="c1cc(CCC2CCC3(CC2)CCC(OCCN2CCCC2)CC3)co1 (centres unmarked)" assigned_class="lower segment"
molecule="OC1(Cc2ccoc2)CCC2(CCC(COCCN3CCCC3)CC2)CC1 (centres unmarked)" assigned_class="lower segment"
molecule="c1cc(CC2CCC3(CCC(COCCCN4CCCC4)CC3)CC2)co1 (centres unmarked)" assigned_class="middle segment"
molecule="OC1(CCc2ccoc2)CCC2(CCC(OCCN3CCCC3)CC2)CC1 (centres unmarked)" assigned_class="upper segment"
molecule="O=C1OCC=C1CCC1CCC2(CC1)CCC(OCCN1CCCC1)CC2 (centres unmarked)" assigned_class="upper segment"
molecule="NC(CO)COC1CCC2(CCC(CCc3ccoc3)CC2)CC1 (centres unmarked)" assigned_class="middle segment"
molecule="c1cncc(CCC2CCC3(CC2)CCC(OCCN2CCCC2)CC3)c1 (centres unmarked)" assigned_class="lower segment"
molecule="NCCSCC1CCC2(CC1)CCC(Cc1ccoc1)CC2 (centres unmarked)" assigned_class="lower segment"
molecule="c1cc(CCC2CCC3(CC2)CCC(OCCCN2CCCC2)CC3)co1 (centres unmarked)" assigned_class="middle segment"
molecule="c1cc(CC2CCC3(CCC(COCCN4CCCC4)CC3)CC2)co1 (centres unmarked)" assigned_class="lower segment"
molecule="OC(COC1CCC2(CCC(CCc3ccoc3)CC2)CC1)CN1CCCC1 (centres unmarked)" assigned_class="upper segment"
molecule="N=C(N)NN=CC1CCC2(CCC(O)CC2)CC1 (centres unmarked)" assigned_class="lower segment"
molecule="c1cc(CC2CCC3(CCC(CSCCN4CCCC4)CC3)CC2)co1 (centres unmarked)" assigned_class="middle segment"
molecule="C1CCN(CCOC2CCC3(CCC(CCC4CCOC4)CC3)CC2)C1 (racemic)" assigned_class="upper segment"
